The reported measurements were obtained from the supplement of paper PMC10567573.

# run description: protein stability index of a GFP-peptide fusion (GPS, HEK-293T) (PSI 1-6); higher = more stable;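 also: 24-mer peptide tiles fused after GFP, lentivirally expressed, FACS-sorted into six equal bins by GFP/DsRed ratio, decoded by Illumina sequencing, PSI is the read-weighted mean bin number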
# protocol conditions: treatment: MLN4924 1 uM, 8 h; c terminus: a fixed tail appended
Exercise: for every item that follows, state its recorded protein stability index.
Lab note: jot the number down without any unit.

Return reported protein stability index. Input sequence: PQQPVMFAQPMMRPPFGAAAVPGT [SNAP91]
3.76

Please give the documented protein stability index of KIGYHLLYYLRASKAAAGKMNLYE [INTS3]
2.25

In one line, give reported protein stability index of the entry RSSHSSDSGGSDVDLDPTDGKLFP [ELF3] .
5.26

Give the value of protein stability index reported for the following: NEKETMQSLNDRLASYLDRVRSLE [KRT18]
3.54

Return the recorded protein stability index value; entry: STKPSGSPLEEKHDQCKCENLIMF [MATN2]
3.41

Give the reported value of protein stability index for this record: LNGDYGENIYPYEEDKDEKSSIYE [MIA2]
3.94

Check the records and state protein stability index for LDISDSISESGGLNWKMTLCLLVA [SLC6A17]
2.5

Fill in protein stability index for record VMFKEPIEILPNVCYTACATLKGP [BTBD1]
2.14

Annotate the sequence RIHSGKKPYACDECAKAFSRSAIL [ZNF396] with its measured protein stability index.
2.38

Provide one value: measured protein stability index of MRDQYMRAGEGFIICYSITDRRSF [RIT1]
2.11

Tell us which protein stability index value is on record for ERHSDLPPLNPTSWWADLRALARN [SPNS1]
3.34

Give the value of protein stability index reported for the following: PVTCCDVSSNNRLVVTGSGEHASV [TLE6]
4.37

Return value of protein stability index for input DYQPTQAGRLMRPSVKYLSHPRVQ [RNF180] , no commentary.
3.4

Quickly give me recorded protein stability index for KNLYKLASQCCGVHVISLHIWELS [PTGFR]
3.06

State its protein stability index for this sequence: TRRRAVGWWKRLFTLKEEKPKMYF [ARL6IP1]
2.11

Kindly indicate its recorded protein stability index. Item: VTLARQAGEVVCEAIKNEMNVMLK [IMPA1]
2.44

Check the records and state protein stability index for RREKAVHRLRVQQAALRAARLRHQ [NOP53]
3.71

Using known records, supply protein stability index for VPGTQVGQGGKLWDPSVQSCKEGL [ZNF263]
4.26

Name the recorded protein stability index of the item KRKREEEEEKEPLAVDSWWLDPGH [SERTAD1] in your answer.
4.79

// Input: ALASISHVAHVTITTKTADGKCAY [MLH1] . Output its protein stability index only.
2.63

Fill in reported protein stability index for this entry: NQEILLPGGITSHQLLGLFPSTSY [TNXB]
2.53

Please give the documented protein stability index of DDLRINLWHLAITDRSFNIVDIKP [PPP2R2C]
2.17

Please report protein stability index for the following sequence: QRLKAVIVIQTYYRQWHAKIFVEN [IQUB]
2.79

Provide measured protein stability index value, entry: TVYNEMDKNRCELLSFLLLMDYIG [EDNRA]
2.17

Identify measured protein stability index corresponding to EIKDVLVWTNDQVVHWVQSIGLRD [PPFIA4]
2.25

Report protein stability index, nothing else, for this sequence: HTETGEEVLRMCVAVKKKLQLYFW [VPS39]
2.82

Assign protein stability index to the following record: PQFLHEGLSKPVYVINWFMSFGPE [FAM104B]
2.97

Write down protein stability index measured for item KVHMKDVMSALWVSGLDSSYLREQ [GAN]
2.23

====

I'd appreciate it if you could supply protein stability index values for the items below.
# run description: protein stability index of a GFP-peptide fusion (GPS, HEK-293T) (PSI 1-6); higher = more stable
# protocol conditions: treatment: MLN4924 1 uM, 8 h; c terminus: a fixed tail appended
Response field accepts a number only; no unit should be typed.

// Input: GDWSAFNQAPSGPVASSGEFFGSA [CLINT1] . Output its protein stability index only.
4.31

Identify measured protein stability index corresponding to KGPLVPFPNQKSEAAEPPKTPPSS [KMT5A]
5.39

Given VDSPKNFNIAGTVVKYRRPMDVYE [ADAMTSL2] , respond with its protein stability index.
3.49

Recall and state the measured protein stability index for EDLEDLGAVAPPVSGDLTKEDIDL [NFE2L1] .
5.3

Identify measured protein stability index associated with QHGLVLRDLKLCRFVFADRERKKL [TRIB3]
2.55

Find the measured protein stability index of YNYMMGIEFNPRIGKWFDFKLFFN [DHCR7] and report it.
2.23

Annotate the sequence GSYTVQSELGDYDPDECGSDYISE [EPB41L3] with its measured protein stability index.
5.2

====

Please provide measured protein stability index for the entries that follow.
# run description: protein stability index of a GFP-peptide fusion (GPS, HEK-293T) (PSI 1-6); higher = more stable
# protocol conditions: treatment: DMSO; c terminus: a fixed tail appended
// response body must contain only the number

Consider the sequence ILQDQEHIFAHRIYLATSSSKFYD [RHOBTB1] . State its measured protein stability index.
2.15

Look up and report measured protein stability index for this entry: SPLLSQETAGQKPLSVHRPPTSGC [TSPAN10]
4.4

Specify measured protein stability index for SELGDYDPDECGSDYISEFRFAPN [EPB41L3] .
2.22

Could you please provide reported protein stability index for LGLSKLARIVEIYSRRLQVQERLT [GCH1] ? Thanks!
2.71

Give the measured protein stability index for EQGFQEGVPNASVIMQVPERIVVA [MFF]
3.76

Kindly indicate its recorded protein stability index. Item: YSYMSPNKCSGMRFPLQEENSVTH [KMT5A]
3.35

Indicate its recorded protein stability index; the sequence in question is GPPHARISQHGDPLLSNTFTETNN [EMID1]
4.31

# return recorded protein stability index for entry NSSGDIGKKEIKPFKRFLRKKSKP [SMOC2]
4.15

Supply recorded protein stability index for TGNSLNEPEEPSEIPERRDSGVGA [DLC1] here.
5.58

// fetch protein stability index given entry MPVICGPEENYPSLQMSSAEMPHT [NANOGP8]
4.47

Please report protein stability index for the following sequence: HASKCEFLANLHITALLNVSRRTS [DUSP5]
2.2

Entry TRGHAISILFGFWTSFICDTYIVL [SMIM2] needs its protein stability index filled in; supply it.
2.73

State, in one line, measured protein stability index of TTTLEGSPSVPCIFCEEHFPVAEQ [ZNF277]
4.17

Using known records, supply protein stability index for TALKKWMFLQLVPSWNGSLKQLLT [GMCL1]
2.74

Look up protein stability index of LLTSPRAINNLVLQGCSSIGLRLV [KLHL14] and report it.
2.92

Report measured protein stability index; entry is GGTLFSLEEGSSFWNQGLTWKVLF [CLCN6]
2.7

Recall and state the measured protein stability index for VHASGWNKILVPLVLLRQMLLELT [BCL2L13] .
2.2

Determine its reported protein stability index: ASVTIQARAEQEEEFISNTLFKKI [CCDC6]
3.54

====

# run description: protein stability index of a GFP-peptide fusion (GPS, HEK-293T) (PSI 1-6); higher = more stable
# protocol conditions: treatment: MLN4924 1 uM, 8 h; c terminus: a fixed tail appended
Classify by measured protein stability index: true (1) if it is equal to or exceeds 3, false (0) if it is smaller.

Given the entry QQHAEGSPEPGTPAAPTPESFTVH [DNAAF3] , answer whether its protein stability index meets or surpasses 3.
true (1)

# check: protein stability index of FLKAVLRQERVSLYPFQIHSIALS [CDS1] is greater than or equal to 3
false (0)

Hello, I need to know if LKEAPVQDQGYKTLRLRENCVLSS [ZNF8] has measured protein stability index not below 3. Thanks!
true (1)

Would you say SSTLVRPIRSRRALPPLRTRSKSD [FAM189A2] shows protein stability index at minimum 3?
true (1)

Please indicate if the recorded protein stability index for TCSSCLLRAPTISDLLNDQDLLDV [EDARADD] meets or exceeds 3.
false (0)

Does the sequence ANFIEKVRFLEQQNAALRGELSQA [PRPH] have recorded protein stability index that is 3 or more?
true (1)

Is protein stability index for TDGSVLAAGTHDGSVYFWATPRQV [WSB1] at or above 3?
false (0)

Say whether ILTRSWEEVSTLNAQIPELKSDLE [CD207] shows protein stability index of 3 or more.
true (1)

protein stability index >= 3 for ILIVDWDVHHGNGTQHMFEDDPSV [HDAC6] ?
false (0)

Tell me whether protein stability index is at least 3 here: PPLPLHPGGDQGGPPVGPLSLGLA [WAS]
true (1)

Is protein stability index at least 3? Consider RFPLMTPQELINYVQTVDFMRTDN [KLHL13]
false (0)

For this sequence, is measured protein stability index 3 or higher? TTLSFYGNSISISALQSLLQHLIG [PRAME]
false (0)

Does the sequence SYAFPKEFPYRMNHILECEFYLLE [CCNC] have recorded protein stability index that is 3 or more?
false (0)

Does protein stability index meet or surpass 3 for DVIGDEICCWSFYGQGRKIAEVCC [KCTD10] ?
false (0)

Confirm if protein stability index reported for the sequence GGAVVANYPYDKSFEHRVRGVRRT [CPN1] is 3 or above.
true (1)

Check the entry YQYIQSRFYRSPEVLLGTPYDLAI [DYRK1B] : does protein stability index equal or exceed 3?
false (0)

Assess whether reported protein stability index for QDQGYKTLRLRENCVLSSSPNPFP [ZNF8] sits at 3 or higher.
true (1)

Dear colleague, could you confirm whether RRLKTTRLKEYTIKSHSSLPPNNS [DAPK3] has protein stability index at or above 3?
true (1)

# check: protein stability index of RGRFGELLLLLPTLQSITWQMIEQ [HNF4A] is greater than or equal to 3
true (1)

Please check the record ADLRLGGQPAPPQLLLGRLFRWPD [SMAD6] and state if its protein stability index is at or above 3.
false (0)

Could you tell me if the measured protein stability index of STAKKEDINLSVRKLLNRHNIVFG [TRIP13] reaches 3 or more?
false (0)

Is protein stability index at least 3? Consider RRLQEVLGVQTGGPGGRRAGEPGH [DYRK1B]
true (1)

Please check the record QVLLKGMTSISLPSVMDPGAFETV [ZBTB22] and state if its protein stability index is at or above 3.
false (0)

Entry RHLTSRHQEAEMAQNAVRLHYGLP [CTNNB1] : is its protein stability index no less than 3?
true (1)

Determine whether this sequence has protein stability index no lower than 3: NSKKEEPQELLQSQDFVGEKLGSG [ATE1]
true (1)

Tell me whether protein stability index is at least 3 here: FSSNIHTYHVGKQCFFNGVFLGNK [SPATS1]
false (0)

Textbook exercise: given the entry YYFIMACDQYSCALTGPVVDIVTG [DHCR7] , state whether its protein stability index is greater than or equal to 3.
true (1)

Identify whether the reported protein stability index of the following sequence is 3 or greater: ESLREELICLKKNHEEEVNTLRSQ [KRT34]
true (1)

Say whether FAPFIVYYFIMACDQYSCALTGPV [DHCR7] shows protein stability index of 3 or more.
true (1)

Reported protein stability index reaches at least 3 for MKQRDNCKIRIQRQLEIMGKEVSG [STX11] ?
true (1)

Textbook exercise: given the entry LHKQVLMGPYNPDTCPEVGFFDVL [ACBD3] , state whether its protein stability index is greater than or equal to 3.
false (0)

Tell me whether protein stability index is at least 3 here: LLELAGEVTDTGDPIVRPLWWIAP [MYORG]
false (0)

Identify whether the reported protein stability index of the following sequence is 3 or greater: EVRLVPVSFEDPEFKSSFSQSFSL [ATE1]
false (0)

Dear colleague, could you confirm whether QEFSDVERAIETLIKNFHQYSVEG [S100A14] has protein stability index at or above 3?
false (0)

Record AEGNNQAPGEEEEEEEEATNTHPP [CHGA] ; criterion: protein stability index no lower than 3. Met?
true (1)

Tell me whether protein stability index is at least 3 here: PPPGSLSRTQEPSLGKQKVFIIRK [SOAT2]
true (1)

Can KATEPTETVQTWIELLTGETWNPF [GOLPH3L] be said to have protein stability index at or above 3?
false (0)

Quick check: does GGYNLASVSVWDLAAPSLHVKEQL [TLE6] have protein stability index greater than or equal to 3?
false (0)

Does protein stability index meet or surpass 3 for ETQTLTGWSKGFIGMHREMQVNPI [RHOBTB1] ?
true (1)

Please indicate if the recorded protein stability index for KGEVPKGSCEDEPMDSTMDDAVAG [ATE1] meets or exceeds 3.
true (1)

# bool: protein stability index of KLRHLDISRDRLSSYYKFKLTREV [ZER1] >= 3
false (0)

Threshold query (protein stability index >= 3) on SWREAKVSWFGSPTTSFLSISKLS [PWWP2B]
false (0)
